Recorded values, source PubChem BioAssay (NCI).

System: MDA-MB-231 breast
Experimental protocol: NCI-60 one-dose screen, 48 h (100 = growth as untreated, 0 = no growth, -100 = all killed)
Assay context: 10 µM unless noted
About 83,000 compounds went through this panel and 20% of them were active in at least one assay; those are over-represented in the sample as a whole.
Outcome measure: growth (%)
Please state the figure in %; there is no need to write the unit.

Please report the recorded growth for COc1cccc(-c2nc3sccn3c2-c2ccnc(NCCCNS(=O)(=O)c3cccc(Cl)c3)c2)c1 .
71.9

Please report the recorded growth for CNC(=O)c1cc(Oc2ccc(NC(=O)Nc3ccc(Cl)c(SC)c3)c(F)c2)ccn1 .
50.1

Please report the recorded growth for CN(Cc1cc(Cl)cc(Cl)c1O)Cc1cc(Cl)cc(Cl)c1O .
78.5

Please report the recorded growth for O=C1/C(=C/C(Cl)=C/c2ccccc2)SC(=S)N1CCc1ccc(O)cc1 .
27.3

Please report the recorded growth for O=C1CC[C@H](c2ccc(O)c3c2C(=O)[C@@H]2O[C@@H]2C3=O)c2cccc(O)c21 .
43.5

Please report the recorded growth for COc1cc(C)c(C2C(C#N)=C(N)Oc3n[nH]c(-c4cccs4)c32)cc1C(C)C (stereo not given) .
107

Please report the recorded growth for N#CN1CC[C@H](C(=O)Nc2cc3cc(C(N)=O)ccc3cn2)C1 .
-0.49

Please report the recorded growth for O=C1NC(=S)NC(=O)C1CC(=O)n1c(-c2ccccc2)nc2ccccc21 .
88

Please report the recorded growth for CN(C)S(=O)(=O)c1cccc(-c2nc3sc4c(c3c(=O)[nH]2)CCCC4)c1 .
34.8

Please report the recorded growth for Cc1c(/C=C/[N+](=O)[O-])ccc2c1[nH]c1ccccc12 .
106

----------
System: DU-145 prostate
Experimental protocol: NCI-60 one-dose screen, 48 h
Assay context: 10 µM unless noted
The panel holds about 83,000 compounds, 20% with a hit somewhere; the sample as a whole holds those more often. The source made the active and inactive calls. How the source made its calls: active means growth percent below 10; inactive means the rest.
The reply should name one outcome from active, inactive

Hey, what did the test say about COC(=O)c1cccc(NC(=O)c2ccc(-c3cccc(N)c3)o2)c1 ?
inactive

Hey, what did the test say about COc1ccc(N=Nc2nccs2)c(O)c1 ?
inactive

Hey, what did the test say about Cc1cc(N2CCCCC2)nc(NC2CCCC(Nc3ccnc4cc(Cl)ccc34)C2)n1 (stereo not given) ?
active

Hey, what did the test say about OC(COc1cccc2ccccc12)CN1CCN(c2ccccc2Cl)CC1 (stereo not given) ?
inactive

Hey, what did the test say about O=C(N/N=C/c1ccccc1O)c1ccccc1Nc1ccnc(C(F)(F)F)c1 ?
inactive

Hey, what did the test say about O=[N+]([O-])c1cnc(N2CCN(CC3CC3)CC2)nc1N1CCN(CC2CC2)CC1 ?
inactive

Hey, what did the test say about Cc1ccc(-c2onc3c(=O)[nH]nc(-c4ccccc4)c23)cc1 ?
inactive

Hey, what did the test say about CCOc1cc2ncc(C#N)c(Nc3ccc(OCc4cccc(F)c4)c(Cl)c3)c2cc1NC(=O)CCCCC1CCSS1 (stereo not given) ?
inactive

Hey, what did the test say about C#CCOc1ccc2ncnc(N3CCN(C(=O)CCl)CC3)c2c1 ?
inactive

Hey, what did the test say about CCN(CC)S(=O)(=O)c1ccc(OC)c(NC(=O)c2[nH]c(C)c3c2CCCCC3=O)c1 ?
inactive

----------
Tested on: EKVX NSCLC
Experimental protocol: NCI-60 one-dose screen, 48 h (100 = growth as untreated, 0 = no growth, -100 = all killed)
Assay context: 10 µM unless noted
Procedure: Growth inhibition of the EKVX human Non-Small Cell Lung tumor cell line is measured as a screen for anti-cancer activity. Cells are grown in 96 well plates and exposed to the test compound for 48 hours. Compounds are tested at a single concentration, which is 10^-5 M for most compounds. The reported endpoint is percent growth (GI% or GIPRCNT), where numbers from 0 - 100% represent growth inhibition, and numbers from -100% - 0 represent cell death. […]
This is part of a sample that, as a whole, favours compounds with a hit. Of some 83,000 tested, about 20% had one in any assay. Active and inactive are the calls of the source. The calls were made as follows: active = growth percent below 10; inactive = the rest.
Outcome measure: growth

Please report the recorded growth for CNC(=O)c1cc(Oc2ccc(NC(=O)Nc3ccc(Cl)c(OC(F)(F)F)c3)c(F)c2)ccn1 .
26.2% (inactive)

Please report the recorded growth for COc1cc(-c2ccc3c(c2)NC(=O)/C3=C\c2ccc[nH]2)ccc1O .
35.6% (inactive)

Please report the recorded growth for COc1cc2nc(N3CCCC3)nc(Nc3ccccc3)c2cc1OC .
28.3% (inactive)

Please report the recorded growth for CC(=O)c1cc2c(N)c(C(=O)Nc3ccccc3)sc2nc1C .
70.1% (inactive)

Please report the recorded growth for C=C1c2nc3ccccc3n2C=C(c2ccc(Cl)cc2)N1Cc1ccc(OC)cc1 .
71.3% (inactive)

Please report the recorded growth for Cc1cc2nc(NC(=O)CN3CCN(CCN4C(=O)c5cccc6cccc(c56)C4=O)CC3)sc2cc1C .
82.1% (inactive)

Please report the recorded growth for CC1=C(O)C(=O)C(C(C#N)(C#N)C(C#N)C#N)C1 (stereo unspecified) .
95.3% (inactive)

Please report the recorded growth for O=C(Oc1cccnc1)c1ccsc1Nc1ccnc(C(F)(F)F)c1 .
110% (inactive)

Please report the recorded growth for COc1cc(-c2nn(-c3ccc(Br)cc3)cc2C(=O)O)ccc1O .
87.2% (inactive)

Please report the recorded growth for CN(C)S(=O)(=O)c1cccc(-c2nc3sc4c(c3c(=O)[nH]2)CCCC4)c1 .
56.1% (inactive)

Please report the recorded growth for NC(=O)c1cc(Br)ccc1NC(=O)/C=C/c1ccccc1 .
46.4% (inactive)

Please report the recorded growth for Nc1ccc(-c2cc3c(Nc4ccc(Oc5cccc(C(F)(F)F)c5)c(Cl)c4)ncnc3s2)cc1 .
54.8% (inactive)

Please report the recorded growth for CCNC(=O)Oc1ccc(/C(=C(\C)c2ccc(Cl)cc2)c2ccc(OCCN(CC)CC)cc2)cc1 .
60.1% (inactive)

Please report the recorded growth for COc1ccc(S(=O)(=O)N2CCN(C)CC2)cc1NC(=O)c1[nH]c(C)c2c1CCCCC2=O .
58.4% (inactive)

Please report the recorded growth for NNCCc1ccc(NC(=O)CCCc2ccc(/C=C/C(=O)NO)cc2)cc1 .
69.2% (inactive)

Please report the recorded growth for Cc1ccc(C(SCC(N)C(=O)O)(c2ccccc2)c2ccc(C)cc2)cc1 (stereo unspecified) .
43.1% (inactive)

Please report the recorded growth for O=C(CN1C(=O)/C(=C/c2ccc(Cl)cc2)SC1=S)NCCCN1CCOCC1 .
90.7% (inactive)

Please report the recorded growth for O=C(COc1cccc(/C=C2\COc3ccccc3C2=O)c1)Nc1nccs1 .
72.2% (inactive)

Please report the recorded growth for COc1ccc(/C=N/C2=C(C#N)C(c3ccc(N(C)C)cc3)c3ccc4ccccc4c3O2)cc1 (stereo unspecified) .
61.3% (inactive)

Please report the recorded growth for CON1C(=O)CC[C@]2(C)[C@H]3CC[C@@H]4C([C@@]5(C)CCC(=O)O5)CC[C@@]4(C)[C@]3(C)CC[C@H]2C1(C)C (stereo partly specified) .
93.3% (inactive)

Please report the recorded growth for O=C(Nc1ccccc1Cl)c1ccc(NC2=C(Cl)C(=O)N(C3CCCCC3)C2=O)cc1 .
98.5% [30 µM] (inactive)

Please report the recorded growth for c1ccc(CCNc2ncnc3[nH]ncc23)cc1 .
58.3% (inactive)

Please report the recorded growth for O=C(Nc1ccc(Cl)cc1)c1cc2cc(F)ccc2cc1O .
17% (inactive)

Please report the recorded growth for CN1CCN(c2nc(NCCCCNc3ccnc4cc(Cl)ccc34)c3ccccc3n2)CC1 .
80.7% (inactive)

Please report the recorded growth for CN1CCN=C1c1ccc(NC(=O)c2ccc(C(=O)Nc3ccc(C4=NCCN4C)cc3)cc2)cc1 .
89.1% (inactive)

Please report the recorded growth for COc1cc(/C=C/C(=O)Nc2cccnc2Nc2ccc(F)cc2)cc(OC)c1OC .
92.5% (inactive)

Please report the recorded growth for COc1cc2c(cc1-c1c(C)noc1C)ncc1nc(C3CCOCC3)n([C@@H](C)COC(F)F)c12 .
55.8% (inactive)

Please report the recorded growth for COc1cc(C=Nc2oc(-c3ccccc3)c(-c3ccccc3)c2C#N)cc(CN2CCCCC2)c1O .
95% (inactive)

Please report the recorded growth for CCCCCCN(CCCCCC)C(=N)c1ccnc2ccccc12 .
84.5% (inactive)

Please report the recorded growth for O=C(/C=C/C=C/c1ccc2c(c1)OCO2)N/N=C\c1ccc(O)cc1O .
20.2% (inactive)

Please report the recorded growth for CNC(=O)c1cc(Oc2ccc(NC(=O)Nc3ccc(Cl)c(SC)c3)c(F)c2)ccn1 .
32.4% (inactive)

Please report the recorded growth for C=CC(=O)Nc1cccc(-c2nc(SC)nc(NCc3ccccc3)c2C#N)c1 .
44% (inactive)

Please report the recorded growth for CCOC(=O)c1c(C)oc2ncnc(N3CCN(C(=S)Nc4ccccc4)CC3)c12 .
91.2% (inactive)

Please report the recorded growth for C(=C\c1nccc2c1[nH]c1ccccc12)/c1ccccc1 .
38.3% (inactive)

Please report the recorded growth for COc1ccc(-c2nnc(SCC(=O)c3ccc(Cl)cc3)o2)cc1 .
101% (inactive)

Please report the recorded growth for CN1C(=O)C2(SCC(C(=O)NCc3ccccc3)N2C(=O)C2CCCCC2)c2ccccc21 (stereo unspecified) .
86.8% (inactive)

Please report the recorded growth for O=C1NC(=S)NC(=O)C1CC(=O)n1c(-c2ccccc2)nc2ccccc21 .
82.4% (inactive)

Please report the recorded growth for O=C1/C(=C/c2ccccc2O)N=C2SCCCN12 .
81.8% (inactive)

Please report the recorded growth for O=C(/C=C/c1ccc(C(F)(F)F)cc1)Nc1ccc(C=C2c3ccccc3C(=O)c3ccccc32)cc1 .
53.6% (inactive)

Please report the recorded growth for COc1ccc(-c2nn(-c3ccc(Cl)cc3)cc2-c2nc3ccccc3[nH]2)cc1 .
85.2% (inactive)

Please report the recorded growth for Cc1ccccc1COc1ccc(-c2ccnn2-c2ccc(Cl)cc2)cc1 .
77% (inactive)
